- System: Cytochrome P450 2C9 (Homo sapiens)
- Experimental Protocol: blockers of cytochrome P450 2C9 activity – biochemical, luminescence, ADME assay, primary screen (AID 777)
- Conditions Used: CYP2C9 Supersomes, luciferin-H conversion, at 5 µM
The whole screen tested about 96,000 compounds, of which about 19,000 (20%) were called active.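 The calls were made as follows: active = blocking of liver enzyme CYP2C9 beyond about 50% at 5 µM (limit read from the data); inactive = the rest.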 Only a sample is shown.
Hi! Could you answer with just one of these? active, inactive

COc1cc(Cn2c(N)c(C(=O)NCc3ccco3)c3nc4ccccc4nc32)cc(OC)c1OC; active
COc1ccc(-c2nc(CS(=O)CC(=O)N3CCC4(CC3)OCCO4)c(C)o2)cc1 (stereo not drawn); inactive
C=Cn1ccnc1P(=S)(c1cc(N(CC)CC)ns1)c1nccn1C=C; inactive

## Task Identify the outcome logged in this assay for the molecule shown: CC[N+](CC)(CC)CCCCCCCCCC[N+](CC)(CC)CC
## Result inactive

## Task Identify the outcome logged in this assay for the molecule shown: COc1ccc(C2NCc3ccc4c(c3-n3cccc32)OCO4)cc1OC (stereo not drawn)
## Result inactive

* * *

Documented inhibition across a set of compounds
- System: Cytochrome P450 2C9 (Homo sapiens)
- Experimental Protocol: blockers of cytochrome P450 2C9 activity – biochemical, luminescence, ADME assay, primary screen (AID 777)
- Conditions Used: CYP2C9 Supersomes, luciferin-H conversion, at 5 µM, stronger effect = higher value
In all, about 96,000 compounds went through this assay and about 19,000 (20%) were called active. Not all results are given here.
Enter your answer as a number in %; do not include the unit.

Answered cases to consult:
O=C(c1cc(-c2ccncc2)nc2ccccc12)N1CCC2(CC1)OCCO2; 41.9
O=C(c1cc2nc(-c3ccccc3)cc(-c3ccccc3)n2n1)N1CCC2(CC1)OCCO2; 94.6
CN(C)C(=O)NC(O)C(Cl)(Cl)Cl (stereo unspecified); 74.8
Cc1ccc(N(C)C(=O)Oc2cccc3ccc(C)nc23)cc1; 36.4
O=c1c2ccccc2nc(-c2ccc(Cl)cc2Cl)n1-c1ccncc1; 17.2

Next compound, inhibition to be filled in.
## Task Returns the measured inhibition for the input compound. Input: Cc1cccc(-n2c(C)nc3cc(C(=O)N4CCC5(CC4)OCCO5)ccc32)c1
## Result 13.7

* * *

- System: Cytochrome P450 2C9 (Homo sapiens) (UniProt P11712)
- Sequence (P11712 whole entry, looked up): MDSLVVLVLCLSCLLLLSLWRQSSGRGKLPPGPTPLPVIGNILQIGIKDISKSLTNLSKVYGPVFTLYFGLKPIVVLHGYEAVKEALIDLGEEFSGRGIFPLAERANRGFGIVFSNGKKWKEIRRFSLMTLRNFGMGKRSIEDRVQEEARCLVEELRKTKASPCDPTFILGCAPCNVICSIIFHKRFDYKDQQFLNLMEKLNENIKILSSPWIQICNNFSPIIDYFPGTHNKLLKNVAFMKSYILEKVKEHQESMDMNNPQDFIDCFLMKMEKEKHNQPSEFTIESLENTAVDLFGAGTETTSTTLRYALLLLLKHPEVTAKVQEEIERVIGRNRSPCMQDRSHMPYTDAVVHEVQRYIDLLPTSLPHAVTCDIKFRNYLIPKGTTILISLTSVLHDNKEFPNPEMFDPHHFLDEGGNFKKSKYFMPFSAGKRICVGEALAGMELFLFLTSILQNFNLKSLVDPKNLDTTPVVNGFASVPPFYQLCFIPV
- Experimental Protocol: blockers of cytochrome P450 2C9 activity – biochemical, luminescence, ADME assay, primary screen (AID 777)
- Conditions Used: CYP2C9 Supersomes, luciferin-H conversion, at 5 µM, stronger effect = higher value
About 19,000 (20%) of roughly 96,000 compounds were called active. The list is a sample of the results.
Assay Endpoint: inhibition (%)
Enter your answer as a number in %; do not include the unit.

Answered cases to consult:
c1cncc(CNC2=NCCC2)c1; -10.2
CCCCCn1c(=O)c(C(=O)Nc2c(C)n(C)n(-c3ccccc3)c2=O)c(O)c2ccccc21; 25.9
CC(=O)Nc1ccccc1C(=O)OCC(=O)c1cccc2ccccc12; 80.7
CC(=O)c1ccc(OC(NC(=O)Cc2ccccc2)C(Cl)(Cl)Cl)cc1 (stereo not drawn); 86.4
CCOc1ccc(C2SCC(=O)Nc3c2c(C)nn3C2CCOC(C)(C)C2)cc1 (stereo not drawn); 7.4

## Task Returns the measured inhibition for the input molecule. Input: CCCCCn1c(=O)c(C(=O)NCc2ccccn2)c(O)c2ccccc21
## Result 78.1

## Task Returns the measured inhibition for the input molecule. Input: CSC1=NP(=S)(SC)N(C)c2nc3n(c21)CCC3 (stereo not drawn)
## Result 9.2

## Task Returns the measured inhibition for the input molecule. Input: COc1ccccc1N1CCN(C(CNC(=O)Oc2ccccc2)c2cccnc2)CC1 (stereo not drawn)
## Result 44.1

## Task Returns the measured inhibition for the input molecule. Input: CCN1c2nc3c(C)cccn3c(=O)c2CC2(C(=O)N(C)C(=O)N(C)C2=O)C1C (stereo not drawn)
## Result -8.4

## Task Returns the measured inhibition for the input molecule. Input: O=C(CCN1CCCCC1)NCC(=O)Nc1ccc(Br)cc1C(=O)c1ccccc1
## Result -14.9

## Task Returns the measured inhibition for the input molecule. Input: C=CCN1C(=O)C2(C(C(=O)OCC)=C(N)Oc3c2c(=O)oc2ccccc32)c2ccccc21 (stereo not drawn)
## Result 88.5

## Task Returns the measured inhibition for the input molecule. Input: CCOC(=O)CC1=C(C(=O)OCC)C2(C(=O)N1)C(C(=O)OC)=C(N)Oc1ccccc12 (stereo not drawn)
## Result 20.6

## Task Returns the measured inhibition for the input molecule. Input: CCOc1ccc(CN(CCCl)CCCl)cc1C(=O)OC
## Result 97.3

## Task Returns the measured inhibition for the input molecule. Input: COC(=O)C(c1ccccc1)N1CCCCCC1 (stereo not drawn)
## Result 5.8

## Task Returns the measured inhibition for the input molecule. Input: O=C1NC(=O)C(C/C=C/c2ccccc2)C(=O)N1
## Result -3

## Task Returns the measured inhibition for the input molecule. Input: N[C@@H](Cc1c[nH]c2ccccc12)c1nnc(SCc2c(F)cccc2Cl)o1
## Result 70.3

## Task Returns the measured inhibition for the input molecule. Input: CNC(=O)N(C)c1nnc(C(C)(C)C)s1
## Result -22.2

## Task Returns the measured inhibition for the input molecule. Input: O=C(O)C1CSC(c2cccnc2)N1 (stereo not drawn)
## Result -16.9

## Task Returns the measured inhibition for the input molecule. Input: CCc1nc2ccccc2c(=O)n1-c1cccc(OC)c1
## Result -4

* * *

- System: Cytochrome P450 2C9 (Homo sapiens)
- Experimental Protocol: blockers of cytochrome P450 2C9 activity – biochemical, luminescence, ADME assay, primary screen (AID 777)
- Conditions Used: CYP2C9 Supersomes, luciferin-H conversion, at 5 µM, stronger effect = higher value
About 19,000 (20%) of roughly 96,000 compounds were called active. A selection follows.
Assay Endpoint: inhibition (%)
Enter your answer as a number in %; do not include the unit.

Answered cases to consult:
C[N+]12CN3CN(CN(C3)C1)C2; 0.8
COc1ccccc1CN1CCN(C(=O)Cc2ccccc2)CC1; 31.5
c1ccc(C2NCc3ccccc3-n3cccc32)cc1 (configuration not stated); 19.1
Cc1cc(N2C(=O)C3CCCN3C2c2ccc(Cl)c(Cl)c2)no1 (configuration not stated); 41.4
CN1CCN(Cc2ccc(OC(F)(F)F)cc2)CC1; 3.1
Cc1cc(C)cc(NC(=S)NC2CC3CCCC(C2)N3Cc2cccs2)c1 (configuration not stated); 8.1

## Task Returns the measured inhibition for the input molecule. Input: CC1(C)C(c2ccccc2)=NC(c2cccnc2)=[N+]1[O-]
## Result 38.2

## Task Returns the measured inhibition for the input molecule. Input: CC12CN3CC(C)(CN(C1)C3c1cccs1)C2 (configuration not stated)
## Result -10.5

## Task Returns the measured inhibition for the input molecule. Input: Cn1c(O)c(C=NCCCC(=O)O)c(=O)n(C)c1=O
## Result -3.8

## Task Returns the measured inhibition for the input molecule. Input: Fc1cccc(F)c1CN1CCN(Cc2c(F)cccc2F)CC1
## Result 7.2

## Task Returns the measured inhibition for the input molecule. Input: NC(=O)Nc1cccc(C(F)(F)F)c1
## Result -12.3

## Task Returns the measured inhibition for the input molecule. Input: Cn1c(C(=O)N2CCC(C(=O)N3CCC4(CC3)OCCO4)CC2)cc2sccc21
## Result -32.3

* * *

- System: Cytochrome P450 2C9 (Homo sapiens)
- Experimental Protocol: blockers of cytochrome P450 2C9 activity – biochemical, luminescence, ADME assay, primary screen (AID 777)
- Conditions Used: CYP2C9 Supersomes, luciferin-H conversion, at 5 µM
Out of some 96,000 compounds screened, about 19,000 (20%) were called active.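 The calls were made as follows: active = blocking of liver enzyme CYP2C9 beyond about 50% at 5 µM (limit read from the data); inactive = the rest.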 Only a sample is shown.
Hi! Could you answer with just one of these? active, inactive

## Task Identify the outcome logged in this assay for the compound shown: CCOC(=O)C1=C(C)OC(N)=C(C(=O)OC)C12C(=O)Nc1ccc(Br)cc12 (stereo unspecified)
## Result inactive

## Task Identify the outcome logged in this assay for the compound shown: CC(C)(C)c1ccc(CN2C(=O)CN=C(c3ccccc3)c3ccccc32)cc1
## Result inactive

* * *

Documented inhibition across a set of compounds
- System: Cytochrome P450 2C9 (Homo sapiens) (UniProt P11712)
- Experimental Protocol: blockers of cytochrome P450 2C9 activity – biochemical, luminescence, ADME assay, primary screen (AID 777)
- Conditions Used: CYP2C9 Supersomes, luciferin-H conversion, at 5 µM, stronger effect = higher value
The whole screen tested about 96,000 compounds, of which about 19,000 (20%) were called active. Only a sample is shown.
Enter your answer as a number in %; do not include the unit.

Answered cases to consult:
COc1ccc(CCn2c(O)c(C=NCCCn3ccnc3)c(=O)[nH]c2=O)cc1OC; 61.3
CN1CCC(N(C)Cc2cccnc2)CC1; -6.3

Next compound, inhibition to be filled in.
## Task Returns the measured inhibition for the input compound. Input: CNP1(NC)=Nc2nn(-c3ccccc3)c(N)c2C(c2ccccc2)=N1
## Result -4
